Molecular target: Pyruvate kinase (Leishmania mexicana)
Assay: Confirmation Assay for Inhibitors of Leishmania Mexicana Pyruvate Kinase (LmPK)
Settings: purified LmPK, Kinase-Glo ATP luminescence, 1 h; series mostly up to 57.5 µM
The other results are listed elsewhere or left out. Calls of active or inactive are those of the source.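 The calls were made as follows: active = compounds giving a full or partial concentration-response curve, as inhibitors or activators; inconclusive = weak, top-dose-only or unclear curve responses; inactive = no response at any tested dose.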

# COMPOUND, outcome
measured = [
    ("Cn1cc(CN2CCCCC2c2ccccn2)c(-c2ccc3c(c2)OCCO3)n1 (centres undefined)", "inactive"),
    ("COc1ccc(-c2cc(C(F)(F)F)nc(NCc3cccnc3)n2)cc1", "inactive"),
    ("CN1CC(c2ccccc2)C2(COc3ccccc3C2=O)C12C(=O)Nc1ccccc12 (centres undefined)", "inactive"),
    ("COc1ccc(C(=O)C[n+]2ccc(N)c(C)c2C)cc1", "inactive"),
]
